All figures here come from patent US20230399403A1.

EC50: recorded values
# target: T1, Recombinant human PD-1 human-FC Chimera (R&D Systems) (human, UniProt Q15116 25-170)
# T1 construct: Bought construct; also called recombinant human-PD-1 extracellular domain; hPD-1 (ELISA); not shown: human Fc part of the bought chimera
# T1 sequence (Q15116 25-170, change not shown): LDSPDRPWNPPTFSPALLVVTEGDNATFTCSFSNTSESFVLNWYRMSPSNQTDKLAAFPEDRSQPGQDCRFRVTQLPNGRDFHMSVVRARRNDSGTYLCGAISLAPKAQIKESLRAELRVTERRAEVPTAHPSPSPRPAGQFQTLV
# experimental.protocol: ELISA, coated recombinant human PD-1 human-Fc chimera
quantity.measured: EC50

INSERT INTO results (binder, quantity_measured, experimental_result) VALUES
  ('MAB-19-0608 (antibody, IgG1, V domains shown, Recombinant humanized hIgG1-LALA antibody) VH: QVQLVESGGGLVQPGTSLRLSCSVSGFSLYSYNMGWVRQAPGKGLEYIGIISGGTIGHYASWAKGRFTISRDTSKTTLYLQMNSLTTEDTATYFCARAFYDDYDYNVWGPGTLVTVSS VL: DIQMTQSPSTLSASVGDRVTITCQSSQSVYGNNQLSWYQQKPGKAPKLLIYQASKLETGVPSRFSGSGSGTQFTLTISSLQPDDFASYYCAGGYSSSSDTTFGQGTKVEIK', 'EC50', '7.7 ng/mL'),
  ('MAB-19-0233 (antibody, human IgG1, V domains shown, Chimeric rabbit/human antibody, human IgG1 constant parts with L234A and L235A (LALA)) VH: QSLEESGGDLVKPGASLTLTCKASGIDFSSVYYMCWVRQAPGKGLEWIACIYVGSSGVSYYATWAKGRFTISKTSSTTVTLQMTSLTAADTATYFCARAGYVGAVYVTLTRLDLWGQGTLVTVSS VL: AAVLTQTPSPVSAAVGGTVTISCQSSQSIYTNNDLAWYQQKPGQPPKLLIYDASKLASGVPSRFSGSGSGTQFTLTISGVQSDDAATYYCLGGYDDDADNAFGGGTEVVVK', 'EC50', '7.2 ng/mL'),
  ('MAB-19-0603 (antibody, IgG1, V domains shown, Recombinant humanized hIgG1-LALA antibody) VH: QVQLVESGGGLVQPGTSLRLSCSVSGFSLYSYNMGWVRQAPGKGLEYIGIISGGTIGHYASWAKGRFTISRDTSKTTLYLQMNSLTTEDTATYFCARAFYDDYDYNVWGPGTLVTVSS VL: DIVMTQSPSSLSASVGDRVTITCQSSQSVYGNNQLSWYQQKPGKAPKLLIYQASKLETGVPSRFSGSGSGTDFTLTISSLQPEDFATYYCAGGYSSSSDTTFGGGTKVVIK', 'EC50', '3.3 ng/mL'),
  ('MAB-19-0594 (antibody, IgG1, V domains shown, Recombinant humanized hIgG1-LALA antibody) VH: EVQLEESGGGLVKPGGSLRLSCAASGIDFSSVYYMCWVRQAPGKGLEWVSCIYVGSSGVSYYATWAKGRFTISRDNSKNTLYLQMNSLRAEDTAVYYCARAGYVGAVYVTLTRLDLWGRGTLVTVSS VL: DIQMTQSPSSLSASVGGTVTITCQSSQSIYTNNDLAWYQQKPGQPPKLLIYDASKLASGVPSRFSGSGSGTQFTLTISSLQSEDAATYYCLGGYDDDADNAFGGGTEVVVK', 'EC50', '14.6 ng/mL'),
  ('MAB-19-0613 (antibody, IgG1, V domains shown, Recombinant humanized hIgG1-LALA antibody) VH: QVQLVESGGGLVQPGTSLRLSCSVSGFSLYSYNMGWVRQAPGKGLEYIGIISGGTIGHYASWAKGRFTISRDTSKTTLYLQMNSLTTEDTATYFCARAFYDDYDYNVWGPGTLVTVSS VL: DIQMTQSPSSLSASVGDRVTITCQSSQSVYGNNQLSWYQKKPGQAPKLLIYQASKLETGVPSRFSGSGSGTDFTLTISSLQPEDFATYYCAGGYSSSSDTTFGPGTKVDIK', 'EC50', '4.4 ng/mL'),
  ('MAB-19-0583 (antibody, IgG1, V domains shown, Recombinant humanized hIgG1-LALA antibody) VH: QVQLVESGGDVVKPGRSLRLSCKASGIDFSSVYYMCWVRQAPGKGLEWIACIYVGSSGVSYYATWAKGRFTISRDTSTSTLFLQMNSLRAGDTATYYCARAGYVGAVYVTLTRLDLWGQGTLVTVSS VL: DVVMTQSPSTVSASVGDRVTLTCQSSQSIYTNNDLAWYQQKPGQPPKLLIYDASKLASGVPDRFSGSGSGTDFTLTISSLQADDFATYYCLGGYDDDADNAFGQGTKVEIK', 'EC50', '7.5 ng/mL');
